target: T1, human ROR1 (hROR1) on cells (human, UniProt Q01973 30-937); test: FACS, A549 cells
T1 construct: whole, on cells; the cell line is named under assay; also called HEK293T-hROR1; 293T-hROR1
T1 sequence (Q01973 30-937): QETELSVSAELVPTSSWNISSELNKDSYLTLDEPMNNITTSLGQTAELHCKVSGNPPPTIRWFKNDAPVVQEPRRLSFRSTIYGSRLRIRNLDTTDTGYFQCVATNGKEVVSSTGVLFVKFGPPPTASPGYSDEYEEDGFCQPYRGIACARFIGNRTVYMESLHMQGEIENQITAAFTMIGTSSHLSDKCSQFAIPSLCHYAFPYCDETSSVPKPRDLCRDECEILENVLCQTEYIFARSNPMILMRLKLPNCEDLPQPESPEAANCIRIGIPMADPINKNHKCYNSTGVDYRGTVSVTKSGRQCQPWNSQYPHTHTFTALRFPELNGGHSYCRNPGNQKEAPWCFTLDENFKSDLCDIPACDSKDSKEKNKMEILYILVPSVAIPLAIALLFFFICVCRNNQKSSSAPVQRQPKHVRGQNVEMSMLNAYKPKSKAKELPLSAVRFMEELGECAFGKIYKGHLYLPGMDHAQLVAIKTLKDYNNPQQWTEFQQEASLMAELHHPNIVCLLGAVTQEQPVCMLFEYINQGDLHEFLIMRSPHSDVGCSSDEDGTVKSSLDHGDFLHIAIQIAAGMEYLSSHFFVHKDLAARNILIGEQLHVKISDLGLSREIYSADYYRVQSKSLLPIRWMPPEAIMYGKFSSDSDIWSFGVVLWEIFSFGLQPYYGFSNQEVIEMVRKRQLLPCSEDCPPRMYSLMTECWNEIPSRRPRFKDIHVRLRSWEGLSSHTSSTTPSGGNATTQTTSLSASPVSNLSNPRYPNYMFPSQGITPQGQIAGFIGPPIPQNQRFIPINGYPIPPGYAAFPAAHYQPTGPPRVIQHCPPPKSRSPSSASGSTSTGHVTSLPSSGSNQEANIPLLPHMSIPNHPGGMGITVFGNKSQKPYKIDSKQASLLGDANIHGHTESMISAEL
# Lookup of reported MAX(MFI) keyed by entry

[
  {
    "binder": "PR001361 (antibody, V domains shown, fully human IgG1, kappa) VH: QVQLVQSGGGVVQPGRSLRLSCTASGFTFSRYGMLWVRQAPGKGLEWVAVAWYDGVSEDYADSVKGRFTISRDNSMNTLSLQMNSLRAEDTAVYYCAREQARSFDLWGRGTLVTVSS VL: DIQLTQSPSTLSASVGDRVTITCRASQSINSWLAWYQQKPGKAPKLLIYKASSLESGVPSRFSGSGSGTEFTLTISSLQPDDFATYYCQQYKSYSPMYTFGQGTKVDIKR",
    "MAX(MFI)": "4520 MFI"
  },
  {
    "binder": "Positive control antibody (PR000374) (antibody, human IgG1, kappa, V domains shown) VH: EVQLVESGGGLVQPGRSLRLSCTASGSDINDYPITWVRQAPGQGLEWIGFINSGGSTWYASWVKGRFTISRDDSKSIAYLQMNSLKTEDTAVYYCARGYSTYYRDFNIWGQGTLVTVSS VL: DIQMTQSPSSLSASVGDRVTINCQASQSIDSNLAWFQQKPGQPPKLLIYRASNLASGVPDRFSGSGSGTDFTLTISSLEAEDVATYYCLGGVGAVSYRTSFGGGTKVEIKR",
    "MAX(MFI)": "3850 MFI"
  },
  {
    "binder": "PR001369 (antibody, human IgG1, kappa, V domains shown, fully human IgG1, kappa; also called anti-ROR1 1015M3-H10 hIgG1; PR001369(WT)) VH: QVQLVESGGGVVQPGRSLRLSCAASGFTFSNYGIHWVRQAPGKGLEWVAIMWYDGSNTDYADSVKGRFTISRDTSKNTLFLQMNSLRAEDTAVYYCAREQARSFDLWGRGTLVTVSS VL: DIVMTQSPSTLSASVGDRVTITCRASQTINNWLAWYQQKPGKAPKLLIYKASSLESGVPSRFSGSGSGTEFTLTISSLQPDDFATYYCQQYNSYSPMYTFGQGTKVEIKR",
    "MAX(MFI)": "3890 MFI"
  },
  {
    "binder": "PR001356 (antibody, human IgG1, kappa, V domains shown, fully human IgG1, kappa; also called anti-ROR1 1015M2-E6 hIgG1; PR001356(WT)) VH: QVQLVESGGGVVQPGRSLRLSCAASGFTFSSYGMHWVRQAPGKGLEWVAVAWYDGVSEDYADSVKGRFTISRDNAKNTLYLQMNSLRAEDTAVYYCAREQARSFDLWGRGTLVTVSS VL: DIVMTQSPSTLSASVGDRVTITCRASQSINNWLAWYQQKPGKAPKLLIYKASSLESGVPSRFSGSGSGTEFTLTISSLQPDDFATYYCQQYKSYSPMYTFGQGTKVEIKR",
    "MAX(MFI)": "4630 MFI"
  }
]
